Numbers sourced from paper PMC5974403.

Assay overview: BBB crossing assay: brain and plasma concentrations by LC-MS/MS after oral administration
Type: in vivo, rat
Setup conditions: SD, rat, brain/plasma; rats, PO 50 mg/kg, 3 h; read-out: Brain/plasma ratio
Assay readout: Kp at 3 h
One number for each entry.

Tell me the measured Kp at 3 h of O=C(NO)c1ccc(CNc2cccc3cccnc23)cc1 , please.
0.9
